- measurement-target: T1, PSCA (prostate stem cell antigen), human, PSCA v.1 (human, UniProt O43653 12-83)
- T1 construct: whole, on cells; also called PSCA变体1; 人PSCA
- T1 sequence (looked up): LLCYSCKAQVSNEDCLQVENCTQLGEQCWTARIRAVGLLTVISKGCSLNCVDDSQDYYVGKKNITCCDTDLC
- assay: FACS titration on SW780 cells, sigmoidal dose-response fit (Graphpad Prism)
Here, each record is paired with measured Kd data.
endpoint: Kd (nM)

>>> observed_result("Ha1-5.99 (antibody, IgG2, V domains shown, ATCC PTA-6703; also called Ha1-5.99.1; HA1-5.99.1) VH: QVHLQQWGAGLLKPSETLSLTCAVYGGSFSGYYWSWIRQPPGKGLEWIGEINHSGSTSYKPSLKSRVTVSVDTSKNQFSLKLSYVTAADTAVYYCARDRGDYGDFLFDYWGQGTLVTVSS VL: SPGERATLSCRASQSIGSTYLAWYQQKPGQAPRLLIYGASSRATGIPERFSGSGSGTDFTLTISGLEPEDFAVFYCQQCGSSPPTFGQGTKVEIKR")
0.28
>>> observed_result("Ha1-4.37 (antibody, V domains shown, ATCC PTA-6702) VH: PGALQESGPGLVRPSQTLSLTCTVSGGSISSGGTYYWIWIRQHPGKGLEWIGYIYYSGSTYYNPSLKSRVTISVDTSKNQFSLKLSSVTAADTAVYYCARDGITMVRGISGGMDVWGQGTTVTVSS VL: ASVGDRVTITCRASQSISSHLNWYQQKPGKAPKLLIYAASSLQSGVPSRFSGSGSGTDFTLSISSLQPEDFATYFCQQSYSIPRTFGQGTKVEITR")
0.23
>>> observed_result("Ha1-1.16 (antibody, V domains shown, ATCC PTA-6698; also called Ha1-1.16.1) VH: QVQLQQSGPGLVKPSQTLSLTCAISGDSVSSNSAAWNWIRQSPSRGLEWLGRTYYRSKWYNGYAVSVKSRMTINPDTSKNQFSLQLNSVTPEDTAVYYCARERLGELYGMDVWGQGTTVTVSS VL: QLTQSPDSLAVSLGERATINCKSSQNILYRSSKKNHLVWYQQKPGQPPKLLIYWASTRESGVPARFSGSGSGTDFTLTISTLQAEDVAVYYCQQYYSTPPTFGQGTRLEIKR")
6.91

From: patent CN1997751A
